# ASSAY_TARGET: human ALDH2*2 recombinant mutant enzyme (E487K) (Homo sapiens, UniProt P05091, E504K)
# Construct: His-tag (pTrcHis vector) (N); made in house; host or cells: E. coli BL21
# Sequence (P05091 18-517 E504K): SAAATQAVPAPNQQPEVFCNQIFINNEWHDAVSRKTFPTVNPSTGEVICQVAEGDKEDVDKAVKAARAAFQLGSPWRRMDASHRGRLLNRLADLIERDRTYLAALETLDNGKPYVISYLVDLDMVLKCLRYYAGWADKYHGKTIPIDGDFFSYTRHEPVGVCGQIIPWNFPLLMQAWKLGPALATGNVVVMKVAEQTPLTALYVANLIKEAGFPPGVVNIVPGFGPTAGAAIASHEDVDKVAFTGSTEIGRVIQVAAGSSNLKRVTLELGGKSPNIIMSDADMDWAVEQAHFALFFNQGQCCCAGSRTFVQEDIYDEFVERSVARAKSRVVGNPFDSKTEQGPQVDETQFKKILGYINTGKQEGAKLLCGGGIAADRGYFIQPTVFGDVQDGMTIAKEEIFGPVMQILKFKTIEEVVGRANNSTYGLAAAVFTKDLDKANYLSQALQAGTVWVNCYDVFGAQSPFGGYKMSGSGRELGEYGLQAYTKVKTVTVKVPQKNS
# EXPERIMENT_SUMMARY: ALDH2 enzymatic assay (NADH at 340 nm), recombinant mutant enzyme
# Format: biochemical
# Parameters: key: −: no activation or inhibition; +: activation less than control 1; ++: activation similar to control 1, within 10%; +++: activation more than control 1 and less than control (compound 161); ++++: activation similar to compound 161, within 10%
# SETUP_CONDITIONS: activation relative to benchmarks control 1 and compound 161
RECORDED_METRIC: ALDH2 (mutant)

Guide cases for ALDH2 (mutant), answers given:
COMPOUND	ENDPOINT_VALUE
COc1ccc(CNC(=O)c2c(Cl)ccnc2OCC2CCCN2)cc1F (stereo not drawn) [Compound 204]	+
COc1ccc(CNC(=O)c2c(Cl)cccc2OCC2CC2C)cc1F (stereo not drawn) [Compound 152]	+++
O=C(NCc1ccc2occc2c1)c1c(Cl)ccnc1OCC1CC1 [Compound 257]	+
COc1ccc(CNC(=O)c2c(Cl)cccc2Br)cc1F [Compound 106]	++

In: # ALDH2 (mutant) lookup, item COc1ccc(CNC(=O)c2c(Cl)ccnc2OCC2CC2)c(F)c1F [Compound 179]
Out: ++

In: # ALDH2 (mutant) lookup, item COc1ccc(CNC(=O)c2c(Cl)cccc2OC(C)C2CC2)cc1F (stereo not drawn) [Compound 150]
Out: ++

In: # ALDH2 (mutant) lookup, item COc1ccc(CNC(=O)c2c(C(F)(F)F)ccnc2OCC2CC2)cc1F [Compound 225]
Out: +

In: # ALDH2 (mutant) lookup, item COc1ccc(CNC(=O)c2c(Cl)ccn(C)c2=O)cc1F [Compound 273]
Out: +

In: # ALDH2 (mutant) lookup, item COc1ccc(CNC(=O)c2c(Cl)cccc2Cl)cc1Cl [Compound 100]
Out: +

====

# EXPERIMENT_SUMMARY: HLM stability T1/2
# Assay type: in vitro ADME
# SETUP_CONDITIONS: human, liver microsomes; read-out: HLM T1/2
RECORDED_METRIC: half-life (min)

P: COc1ccc(CNC(=O)c2c(Cl)cccc2OCC2CC2)cc1F
Q: O=C(NCc1ccc2c(c1)OCO2)c1c(Cl)cccc1Cl [Control 1, reference compound]
R: COc1ccc(CNC(=O)c2c(Cl)cc[n+]([O-])c2OCC2CC2)cc1F
In: Using the list above, order everything by rising half-life. Form field (ranking): labels in requested order.
Out: P, R, Q
(P: 2.67 min, R: 3.85 min, Q: 21.2 min)
